Assign TGI to each entry below.
- System: SK-MEL-5 melanoma
- procedure.summary: NCI tumour cell line growth inhibition, 48 h
Respond with the bare value in µM.

Task: For the compound shown here, `CCCC(c1cc(C(C)(C)C)c(O)cc1C)c1cc(C(C)(C)C)c(O)cc1C` , give the reported TGI.
Result: 3.26

Task: Form field: reported TGI of CCOC(=O)C(CC(C)C)NC(=O)C(N)Cc1ccc(N(CCCl)CCCl)cc1 (stereo not given)
Result: 19.8

---

For each of the compounds below, state its TGI.
- System: A498 renal
- procedure.summary: NCI tumour cell line growth inhibition, 48 h
State the answer as a number, implicitly in µM.

Task: Can you share its TGI? I mean this compound: `O=C([CH-]C(=O)c1ccccc1)c1ccccc1.O=C([CH-]C(=O)c1ccccc1)c1ccccc1.[CH2-]CCC.[CH2-]CCC.[Sn+4]`
Result: 1.5

Task: Entry `COc1ccc(-c2nc(SCC(=O)N/N=C/c3ccc([N+](=O)[O-])cc3)[nH]c2-c2ccc(OC)cc2)cc1` : reported TGI = ?
Result: 55.4

Task: Look up TGI for this compound: `Brc1ccc(N=C/C=C(\Nc2ccc(Br)cc2)C23CC4CC(CC(C4)C2)C3)cc1`
Result: 79.7

Task: Item NCCSC1(O)C(=O)c2ccccc2-c2ccccc21 (centres undefined) has what recorded TGI?
Result: 3.11

Task: I would be grateful if you could share the reported TGI for C=CC(Br)(CBr)CCC1OC1(C)C (centres undefined) .
Result: 40.2

Task: Any idea what TGI was measured for `COc1cc2cc(Oc3ccc(NC(=O)Nc4ccc(F)c(C(F)(F)F)c4)cc3)c(C)nc2cc1OCCN1CCOCC1` ?
Result: 10.2

Task: What does the data say about its TGI? Entry: `CCCCN(CCCC)C1(c2cc3ccccc3s2)CCCCC1`
Result: 34.1

Task: // returns reported TGI for input `Clc1ccc(Nc2ncnc3ccccc23)cc1`
Result: 85.8

Task: Query (compound): CC1(C)CCCCC1/C=C/C(CC(O)(C(F)(F)F)C(F)(F)F)=N\Nc1ccc([N+](=O)[O-])cc1[N+](=O)[O-] (centres undefined) ; field requested: TGI
Result: 6.96

Task: What does the record list as TGI for `O=C(CSc1nc2ccc([N+](=O)[O-])cc2[nH]1)Nc1ccc([N+](=O)[O-])cc1` ?
Result: 3.8

Task: Value lookup for TGI; key = CC(C)C1=CC23CCC4C(C)(C(=O)O)CCCC4(C)C2CC1C1C(=O)N(c2ccc(N4C(=O)C5C6CC7C8(C)CCCC(C)(C(=O)O)C8CCC7(C=C6C(C)C)C5C4=O)cc2)C(=O)C13 (centres undefined)
Result: 24.8

Task: Which value of TGI has been reported for `CC1(C)CC[C@]2(CO)CC[C@]3(C)C(=CC[C@@H]4[C@@]5(C)CC[C@H](NCO)C(C)(C)[C@@H]5CC[C@]43C)[C@@H]2C1` in the records?
Result: 2.83

---

- System: RXF 393 renal
- procedure.summary: NCI tumour cell line growth inhibition, 48 h; in the data active = GI50 below about 0.43 µM; inactive = the rest
Would you mind answering with one of these outcomes? TRUE (active), FALSE (inactive)

Task: What did this assay record as the result for `COC(=O)Nc1nc2ccc(C(=O)C3CC3)cc2[nH]1` ?
Result: TRUE

Task: Hi team, can someone confirm the assay call for `O=C(NC(=S)Nc1ccc(-c2nc3ccccc3[nH]2)cc1)c1ccc2ccccc2c1` ?
Result: FALSE

Task: Please indicate how the test categorized `O=C(CSc1nc2ccc([N+](=O)[O-])cc2[nH]1)Nc1ccc([N+](=O)[O-])cc1` .
Result: FALSE

Task: // return assay outcome for `COc1ccc(/C=C/C(=O)c2ccc(B(O)O)cc2)cc1O`
Result: FALSE

Task: Name the outcome recorded for `Cc1ccc([I+]c2ccc(C)cc2)cc1` in the assay.
Result: FALSE

Task: Short answer needed: outcome of this test for `CCOC(=O)c1c2c(n(Cc3ccccc3)c1C)-c1nc[nH]c1C(=O)C2=O` ?
Result: FALSE

Task: Check the results log: what was the call for `NNC(=S)N/N=C/c1ccccn1` ?
Result: FALSE

Task: Look up the recorded call for `CC[C@@]1(O)C(=O)OCc2c1cc1n(c2=O)Cc2cc3c(OC)cccc3nc2-1` in this test.
Result: TRUE

Task: Look up the recorded call for `O=C(/C=C/c1cccnc1)c1ccccc1` in this test.
Result: FALSE

Task: Hi, do you know how `COc1c(O)cc2c(c1CC=C(C)C)OC(=O)c1c(cc(O)c(CC=C(C)C)c1O)O2` came out in this test?
Result: FALSE

Task: For COc1ncnn2ccc(-c3cnc4nc(C)n(Cc5nnc(C(C)F)o5)c4c3)c12 (configuration not stated) , which call appears in the assay record?
Result: TRUE

Task: What call does the record list for COc1ccc2c(c1)OC(N)=C(C#N)C2c1ccc(F)c(F)c1 (configuration not stated) ?
Result: TRUE

Task: Please let me know the test result on file for `Cl.Fc1c[c-]c(-c2ccccn2)c(F)c1.[Pt].c1ccc([PH+](c2ccccc2)c2ccccc2[PH+](c2ccccc2)c2ccccc2)cc1` .
Result: TRUE

Task: Could you kindly confirm the outcome this assay logged for `CC(=O)N[C@@H](Cc1ccc(OP(=O)(O)O)cc1)C(=O)N[C@H]1CCC(=O)N2CCC[C@@H](C(=O)NCc3cccc4ccccc34)N2C1=O` ?
Result: FALSE

Task: Which result was noted for this molecule in the test: `CCOC(=O)Cc1csc(Nc2nc(O)c(C3=c4ccccc4=NC3=O)s2)n1`
Result: FALSE

Task: For this molecule, state the assay outcome: `CCN1C2=C(SC(=S)C1=C1SC(C(=O)c3ccccc3)=C(C(=O)c3ccccc3)S1)SC(=Nc1ccccc1)C2=O`
Result: FALSE

Task: Status in this test for `O=C1NC(=N[C@@H]2C[C@H]2c2ccccc2)S/C1=C\c1ccc2ncccc2c1` ?
Result: FALSE

---

- System: MCF7 breast
- procedure.summary: NCI tumour cell line growth inhibition, 48 h
reported.endpoint: TGI

Task: Which TGI reading was recorded for the compound `COCN1C(=O)[C@@H]2CCCN2C(=O)c2ccc(Cl)cc21` ?
Result: > 100 µM

Task: Need TGI of `CCCc1c(O)c2ccccc2[nH]c1=O` , thanks.
Result: > 100 µM

Task: Given the compound `CO[C@@H]1C[C@H]2[C@@H]3CC[C@H]([C@@H](C)COC(C)=O)[C@@]3(C)CC[C@@H]2[C@@]2(C)CC[C@H]3C[C@]312` , what is its reported TGI?
Result: 23.6 µM

Task: I am curious: what TGI value has been reported for `CNC(=S)N/N=C(\C)c1cc(OC)c(OC)cc1O` ?
Result: > 100 µM

Task: What TGI value was documented for this compound, `CCOC(=O)Nc1ccc2c3c(cccc13)-c1ccccc1-2` ?
Result: > 100 µM

---

- Tested on: NCI/ADR-RES ovarian
- procedure.summary: NCI tumour cell line growth inhibition, 48 h
I'd appreciate it if you could supply TGI values for the items below.

Task: Need TGI, item CC(C)c1ccc2c(c1)CCC1C(C)(CN)CCCC21C (centres undefined)
Result: 3.61 µM

Task: What does the record list as TGI for `CC1(C)CC(=O)c2c(nc3c(ccc4ccccc43)c2-c2ccc(NC(=O)CCCCCCCCC(=O)Nc3ccc(-c4c5c(nc6c4ccc4ccccc46)CC(C)(C)CC5=O)cc3)cc2)C1` ?
Result: > 100 µM

Task: Item `Cc1cc(S(=O)(=O)Nc2n[nH]c(-c3ccc(Cl)cc3)c2C#N)c(S)cc1Cl` has what recorded TGI?
Result: > 100 µM

Task: Given `CCOC(=O)Nc1nc(-c2ccccc2)c(C)s1` , state its recorded TGI.
Result: > 100 µM

Task: What does the data say about its TGI? Entry: `COc1ccccc1NC(=S)NNC(=O)c1cc(-c2ccccc2)nc2ccccc12`
Result: 63.5 µM

Task: Quick one: TGI of Nc1n[nH]c2ccc([C@H]3[C@@H]4C5CCC(C5)[C@@H]4c4c(ccc5[nH]ncc45)N3S(=O)(=O)C3CC3)cc12 (some centres undefined) ?
Result: > 50 µM

Task: Recorded TGI of `NC(=S)Nc1c(S(N)(=O)=O)cc(S(N)(=O)=O)c(Cl)c1Cl` , please.
Result: > 100 µM

Task: Item CC(C)(C)OC(=O)CCC1NC(=O)[C@@H]2Cc3c([nH]c4ccccc34)C(c3ccccc3)N2C1=O (some centres undefined) has what recorded TGI?
Result: 87.6 µM

Task: Requested read-out: TGI. Entry: `Brc1ccc(N=C/C=C(\Nc2ccc(Br)cc2)C23CC4CC(CC(C4)C2)C3)cc1`
Result: > 84.9 µM

---

- System: U251 CNS
- procedure.summary: NCI tumour cell line growth inhibition, 48 h
reported.endpoint: TGI

Task: Item under review: `Cc1ccc([I+]c2ccc(C)cc2)cc1` . Reported TGI?
Result: > 100 µM

Task: If you can, please state the reported TGI value of `CC1(C)CC(=O)c2c(nc3c(ccc4ccccc43)c2-c2ccc(NC(=O)CCCCCCCCC(=O)Nc3ccc(-c4c5c(nc6c4ccc4ccccc46)CC(C)(C)CC5=O)cc3)cc2)C1` .
Result: > 100 µM

Task: Looking for the measured TGI of CC(=O)OC1C(COC(N)=O)OC(n2c(-c3ccc(C)cc3)cc(-c3ccccc3)c(C#N)c2=O)C(OC(C)=O)C1OC(C)=O (centres undefined) , can you help?
Result: > 100 µM

Task: Please look up its TGI: CC1OC(n2ccc3ccc([N+](=O)[O-])cc32)C(O)C(O)C1O (centres undefined)
Result: > 100 µM

Task: I have this compound here, `CC(=O)Nc1ccc(S(=O)(=O)N/N=C/c2cc(I)cc([N+](=O)[O-])c2O)cc1` , and I need its recorded TGI.
Result: > 100 µM

Task: Recorded TGI of `Nc1ccc(-c2nnc(-c3c(Cl)c(Cl)c(Cl)c(Cl)c3-c3nc4ccc(C(=O)c5ccccc5)cc4[nH]3)o2)cc1` , please.
Result: 47.4 µM

Task: Quick check: TGI of `O=c1[nH]ncc2[nH]c(-c3ccccc3)cc12` ?
Result: > 100 µM

Task: Field request: TGI | item: `COc1ccccc1NC(=S)NNC(=O)c1cc(-c2ccccc2)nc2ccccc12`
Result: 43.7 µM

Task: Tell me the measured TGI of `O=C(O)CSc1nc2ccccc2[nH]1` , please.
Result: > 100 µM
